Test system: PC-3 prostate
Experiment: NCI-60 one-dose screen, 48 h (100 = growth as untreated, 0 = no growth, -100 = all killed)
Conditions: 10 µM unless noted
Compounds without any hit were thinned out: in the full panel of roughly 83,000, 20% have a hit. Calls of active or inactive are those of the source. How the source made its calls: active means growth percent below 10; inactive means the rest. *1 amine or outer side, *2 acyl side, *3 side chain or, on linkers, in order; H or OH if unused. Where a SMILES comes first, the peptide text is derived from it. [ ]: non-standard residue; d: D form. The star is where a group is joined. X5 = CCC(=O)CC1CC(C)CC(C(=O)[*:2])N1[*:1]; X4 = CCCCCCCCC(C)C(=O)*; Aib = CC(C)(N)C(=O)O; X6 = CC(CN(C)CCO)N*
Let's look at some compounds and their measured growth.

COc1ccc2nc3cc(Cl)ccc3c(NCCCCCN3CCCCC3)c2c1	-45.3% (active)
COc1cc(-c2ccc(-[n+]3nc(-c4ccc([N+](=O)[O-])cc4)nn3-c3ccc([N+](=O)[O-])cc3)c(OC)c2)ccc1-[n+]1nc(-c2ccc([N+](=O)[O-])cc2)nn1-c1ccc([N+](=O)[O-])cc1	47.9% (inactive)
Oc1ccc(Nc2ccc3ccccc3c2)cc1	39.2% (inactive)
c1csc(-c2[nH]nc3c2CCc2ccccc2-3)c1	81.7% (inactive)
CCCCCCCCC(C)C(=O)N1CCCC1C(=O)N1C(CC(=O)CC)CC(C)CC1C(=O)NC(C)C(=O)NC(C)(C)C(=O)NC(C)(C)C(=O)NC(C(=O)NC(C)C(=O)NC(C)(C)C(=O)NC(C)(C)C(=O)NC(C)CN(C)CCO)C(C)CC (stereo not drawn) (X4-P[X5]A[Aib][Aib]IA[Aib][Aib]-X6; configuration not given here)	-7.35% (active)

Query block: Bench note: what growth did N#CC(=C1SCS1)[N+](=O)[O-] show?
Result block: 28.8% (inactive)

Query block: Bench note: what growth did COc1cc(NC(=O)C2=C(C)NC(C)=C(C(=O)Nc3cc(OC)c(Cl)cc3OC)C2c2cccc([N+](=O)[O-])c2)c(OC)cc1Cl show?
Result block: 16.8% (inactive)

Query block: Bench note: what growth did CCc1cnc2ccccc2c1/C=C/c1ccc(N(C)C)cc1 show?
Result block: 54.7% (inactive)

Query block: Bench note: what growth did COc1cc(/C=C/C(=O)CC(=O)/C=C/c2ccc(O)c(OC)c2)ccc1O show?
Result block: 36.8% (inactive)
